- System: biotinyl-Ile-oxazolone
- ASSAY_DETAILS: self-aminoacylation, catalytic enhancement (BIO) (fold over background); higher = more active; k-Seq, kA / k0A0; sequences stand for … in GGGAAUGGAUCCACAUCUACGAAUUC…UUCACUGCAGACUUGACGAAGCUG
Fewer inactive variants are shown than the library holds.
Measured self-aminoacylation by item
Number only, no unit.

SEQUENCE_CHAIN: AAGUUUGCAAAUAGUCGCAUG [Fam3.1 aminoacylation ribozyme variant]
self-aminoacylation: 1.14
--
SEQUENCE_CHAIN: AUUCACCUAGGUCAUUGUGUG [Fam2.2 aminoacylation ribozyme variant]
self-aminoacylation: 0.871
--
SEQUENCE_CHAIN: AGUACCCUUGUCAUCGAGUGA [Fam2.1 aminoacylation ribozyme variant]
self-aminoacylation: 3.06
--
SEQUENCE_CHAIN: AUGACCCUGGUCAGCGAGUGA [Fam2.1 aminoacylation ribozyme variant]
self-aminoacylation: 3.46

The reported self-aminoacylation of the sequence AUUACCCAUGUCAUCGAGUGA [Fam2.1 aminoacylation ribozyme variant] was 4.15

The reported self-aminoacylation of the sequence CCACACUUCAAGCAAGCGUUC [Fam1B.1 aminoacylation ribozyme variant] was 0.689

The reported self-aminoacylation of the sequence AUUCACCUCCGUCAUCGGGUG [Fam2.2 aminoacylation ribozyme variant] was 5.62

The reported self-aminoacylation of the sequence AUUACUCUGGUCAUUGAGUGA [Fam2.1 aminoacylation ribozyme variant] was 4.15
